These data points were gathered from ChEMBL document CHEMBL1130421.

- Tested on: CCRF-HSB-2
- test_name: Antiproliferative effects on CCRF-HSB-2 (human leukemia) cells.
- Assay type: functional, cell-based
Each record here notes measured IC50.

Observe how each entry below is paired with its result.
{"columns": ["molecule", "IC50"],
 "data": [
  ["Nc1ccn([C@@H]2O[C@H](CO)[C@@H](O)[C@@H]2O)c(=O)n1 [CYTARABINE]", "0.0086 µg/mL"],
  ["Nc1nc2c(ncn2COCCO)c(=O)[nH]1 [ACYCLOVIR]", "> 100 µg/mL"],
  ["O=c1[nH]c(=O)n([C@@H]2S[C@H](CO)[C@@H](O)[C@@H]2O)cc1/C=C/Br", "> 100 µg/mL"],
  ["O=c1[nH]c(=O)n([C@H]2S[C@H](CO)[C@@H](O)[C@@H]2O)cc1/C=C/Br", "> 100 µg/mL"],
  ["Nc1nc(N)c2ncn([C@@H]3S[C@H](CO)[C@@H](O)[C@@H]3O)c2n1", "0.2 µg/mL"]
]}

IC50 for `CCc1cn([C@H]2S[C@H](CO)[C@@H](O)[C@@H]2O)c(=O)[nH]c1=O` is > 100 µg/mL
